target: Cyclin-dependent kinase 4 (Homo sapiens); conditions: at 0.1 µM
Description: GSK_PKIS: CDK4/cyclinD mean inhibition at 0.1 uM [Nanosyn]
PROPERTY_MEASURED: inhibition

In the examples that follow, each entry is paired with its recorded inhibition.
SMILES_STR	inhibition
COc1ccc(-c2cc3c(N)ncnc3o2)cc1	0.18%
CCOc1ccc2c(-c3ccnc(Nc4cccc(C(F)(F)F)c4)n3)cnn2n1	1.35%
N#Cc1c(NC(=O)c2ccc(F)cc2)sc2c1CCCC2	0.38%
c1ccc(COc2ccc(Nc3ncnc4ccc(-c5ccco5)cc34)cc2)cc1	-0.08%
COc1ccc(-c2oc3ncnc(N)c3c2-c2ccc(NC(=O)Nc3cc(C(F)(F)F)ccc3F)cc2)cc1	3.09%

Inquiry: # input compound: COC(=O)Nc1nc2ccc(Oc3ccc(NC(=O)Nc4cccc(Cl)c4)cc3)cc2[nH]1 ; wanted: its inhibition
Reply text: 0.18%

Inquiry: Quick one: COC(=O)Nc1nc2ccc(S(=O)(=O)c3ccc(NC(=O)Nc4cc(C(F)(F)F)ccc4F)cc3)cc2[nH]1
Reply text: 2.72%

Inquiry: What would you report for COc1ccc(CNC(=O)c2ccc(-c3cc(-c4nnc(C)o4)ccc3C)cc2)cc1 ?
Reply text: 1.82%

Numbers sourced from ChEMBL document CHEMBL1961873.
